SYSTEM_UNDER_TEST: Nuclear factor erythroid 2-related factor 2 (Mus musculus)
Sequence (whole entry): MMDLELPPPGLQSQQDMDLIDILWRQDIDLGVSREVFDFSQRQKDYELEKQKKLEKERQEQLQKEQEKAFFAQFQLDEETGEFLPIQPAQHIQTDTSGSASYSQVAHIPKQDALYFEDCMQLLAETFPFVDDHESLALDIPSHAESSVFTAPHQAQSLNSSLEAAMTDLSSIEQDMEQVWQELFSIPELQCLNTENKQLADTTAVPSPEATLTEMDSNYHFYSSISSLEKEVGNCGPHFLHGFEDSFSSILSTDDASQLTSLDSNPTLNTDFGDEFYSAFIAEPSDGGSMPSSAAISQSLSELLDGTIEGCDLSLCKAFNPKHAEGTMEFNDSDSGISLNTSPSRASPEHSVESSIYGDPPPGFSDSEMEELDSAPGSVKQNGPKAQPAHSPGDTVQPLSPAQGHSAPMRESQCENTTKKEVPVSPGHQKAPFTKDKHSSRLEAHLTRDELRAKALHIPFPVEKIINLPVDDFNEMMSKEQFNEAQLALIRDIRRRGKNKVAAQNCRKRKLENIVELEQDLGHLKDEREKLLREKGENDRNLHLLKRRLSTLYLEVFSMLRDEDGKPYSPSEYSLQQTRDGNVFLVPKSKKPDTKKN
TEST_PROTOCOL: Activation of Nrf2 in mouse Hepa1c1c7 cells assessed as increase in NQO1 activity at 2.5 uM
Assay type: cell-based
STUDY_CONDITIONS: filed as activator
PROPERTY_LABEL: Activity

NS(=O)(=O)c1ccc(-n2c(SCC(=O)Nc3ccc(Cl)cc3)nc3c(I)cc(I)cc3c2=O)cc1: 1.04
NS(=O)(=O)c1ccc(-n2c(SCC(=O)Nc3ccc(I)cc3)nc3c(I)cc(I)cc3c2=O)cc1: 1.04
NS(=O)(=O)c1ccc(-n2c(SCC(=O)Nc3ccccn3)nc3c(I)cc(I)cc3c2=O)cc1: 0.76
NS(=O)(=O)c1ccc(-n2c(SCC(=O)Nc3cc(Cl)c(Cl)cc3Cl)nc3c(I)cc(I)cc3c2=O)cc1: 1.07
NS(=O)(=O)c1ccc(-n2c(SCC(=O)Nc3ccc(Br)cc3)nc3c(I)cc(I)cc3c2=O)cc1: 0.94

* * *

SYSTEM_UNDER_TEST: Nuclear factor erythroid 2-related factor 2 (Mus musculus) (UniProt Q60795)
TEST_PROTOCOL: Activation of Nrf2 in mouse Hepa1c1c7 cells assessed as increase in NQO1 activity at 6.25 uM
Format: cell-based
STUDY_CONDITIONS: filed as activator
PROPERTY_LABEL: Activity

Field: example entries. Status: answers known.
NS(=O)(=O)c1ccc(-n2c(SCC(=O)Nc3cccnc3Cl)nc3c(I)cc(I)cc3c2=O)cc1: 1.17
NS(=O)(=O)c1ccc(-n2c(SCC(=O)Nc3ccncc3)nc3c(I)cc(I)cc3c2=O)cc1: 1.15

I = NS(=O)(=O)c1ccc(-n2c(SCC(=O)Nc3ccc(F)cc3)nc3c(I)cc(I)cc3c2=O)cc1
II = NS(=O)(=O)c1ccc(-n2c(SCC(=O)Nc3ccc(Cl)cn3)nc3c(I)cc(I)cc3c2=O)cc1
[Q] Consider I and II . Which of these has its Activity at a higher number? Answer by quoting the chosen item's label.
[A] II
(II: 1.5, I: 1)
